method description: recombinant barcode read abundance after kanamycin selection (control-corrected) (log10(CPM+1)); higher = more efficient recombination; sequences stand for … in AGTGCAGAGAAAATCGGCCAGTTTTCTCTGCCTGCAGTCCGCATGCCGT…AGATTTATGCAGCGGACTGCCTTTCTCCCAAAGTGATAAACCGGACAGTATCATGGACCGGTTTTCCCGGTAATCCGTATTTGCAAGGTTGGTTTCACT; site = the 11-nt target;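 note: IS621 recombinase and bridge RNA in Escherichia coli cells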
Would you mind labelling by recombinant barcode read abundance (log10)? At or over 0.2 is Condition met, under is Condition not met.

Say whether ACTTGGCCTTGGGTTCTAACCTGTTGCTG (site ACTTGGCCTCA) shows recombinant barcode read abundance (log10) of 0.2 or more.
Condition not met

Say whether TGGCAGACTTGGGTTCTAACCTGTTGCCT (site TGGCAGACTAG) shows recombinant barcode read abundance (log10) of 0.2 or more.
Condition met

Say whether AGTCTAGCTTGGGTTCTAACCTGTTGCTC (site AGTCTAGCTTA) shows recombinant barcode read abundance (log10) of 0.2 or more.
Condition met

Say whether TATTTAGCTTGGGTTCTAACCTGTTGCGG (site TATTTAGCTCC) shows recombinant barcode read abundance (log10) of 0.2 or more.
Condition met

Say whether CAAACTCCTTGGGTTCTAACCTGTTGCGT (site CAAACTCCTAA) shows recombinant barcode read abundance (log10) of 0.2 or more.
Condition not met

Say whether GGGCCTACTTGGGTTCTAACCTGTTGCTC (site GGGCCTACTTA) shows recombinant barcode read abundance (log10) of 0.2 or more.
Condition not met

Say whether TGAGGGACTTGGGTTCTAACCTGTTGCCT (site TGAGGGACTAG) shows recombinant barcode read abundance (log10) of 0.2 or more.
Condition met

Say whether GCCGAGTCTTGGGTTCTAACCTGTTGCTA (site GCCGAGTCTAA) shows recombinant barcode read abundance (log10) of 0.2 or more.
Condition not met

Say whether AGCCCTCCTTGGGTTCTAACCTGTTGCTG (site AGCCCTCCTAA) shows recombinant barcode read abundance (log10) of 0.2 or more.
Condition not met

Say whether CTAGTAGCTTGGGTTCTAACCTGTTGCGT (site CTAGTAGCTAC) shows recombinant barcode read abundance (log10) of 0.2 or more.
Condition met

Say whether TAGATTCCTTGGGTTCTAACCTGTTGCAA (site TAGATTCCTTT) shows recombinant barcode read abundance (log10) of 0.2 or more.
Condition not met

Say whether GATACGACTTGGGTTCTAACCTGTTGCCT (site GATACGACTAG) shows recombinant barcode read abundance (log10) of 0.2 or more.
Condition met

Say whether TAATGTACTTGGGTTCTAACCTGTTGCTT (site TAAAGTACTAA) shows recombinant barcode read abundance (log10) of 0.2 or more.
Condition not met

Say whether GGCCGGCCTTGGGTTCTAACCTGTTGCCT (site GGCCGGTCTAG) shows recombinant barcode read abundance (log10) of 0.2 or more.
Condition not met

Say whether AGCGAGTCTTGGGTTCTAACCTGTTGCCT (site ATCGAGTCTAG) shows recombinant barcode read abundance (log10) of 0.2 or more.
Condition met

Say whether GGTGGGTCTTGGGTTCTAACCTGTTGCGT (site GGTGGGTCTAG) shows recombinant barcode read abundance (log10) of 0.2 or more.
Condition met

Say whether ATAACAGCTTGGGTTCTAACCTGTTGCCT (site ATAAAAGCTAG) shows recombinant barcode read abundance (log10) of 0.2 or more.
Condition met

Say whether ACGGGTTCTTGGGTTCTAACCTGTTGCCT (site ACGGGTTCTAG) shows recombinant barcode read abundance (log10) of 0.2 or more.
Condition met

Say whether GGCACGACTTGGGTTCTAACCTGTTGCCT (site GGCACTACTAG) shows recombinant barcode read abundance (log10) of 0.2 or more.
Condition not met

Say whether CTACCTACTTGGGTTCTAACCTGTTGCGG (site AATATCTCTTG) shows recombinant barcode read abundance (log10) of 0.2 or more.
Condition met
